Measured values drawn from the Immune Epitope Database (IEDB) for this set.

target: HLA-B*40:01; test: IEDB peptide-MHC binding, purified MHC/competitive/radioactivity; filed as Kd, often an IC50 or EC50 that approximates it; bounds were set here for any values at or beyond the usual limits of such assays; conditions: source organism: Dengue virus 1 Singapore/S275/1990
readout_kind: Kd

Lookup: # query: Kd of entry AENHHHATML
Found: 39.9 nM

----------
target: HLA-B*15:01; experiment: IEDB peptide-MHC binding, purified MHC/competitive/radioactivity; filed as Kd, often an IC50 or EC50 that approximates it; bounds were set here for any values at or beyond the usual limits of such assays; conditions: source organism: Vaccinia virus Copenhagen
readout_kind: Kd (nM)
Numbers only; they are read as nM.

Reference set (4 entries):
>  <polymer_sequence>
ELAYYNSCM

>  <system>
HLA-B*15:01

>  <experimental_value>
594

$$$$
>  <polymer_sequence>
LVRSTVSSI

>  <system>
HLA-B*15:01

>  <experimental_value>
527

$$$$
>  <polymer_sequence>
LGFDVVAYF

>  <system>
HLA-B*15:01

>  <experimental_value>
67.3

$$$$
>  <polymer_sequence>
MIFFNPVSF

>  <system>
HLA-B*15:01

>  <experimental_value>
9.43

$$$$

Now look at this one.
Lookup: Notebook entry, HLA-B*15:01 assay: Kd of LLFFLALSI = ?
Found: 134
